Ref: paper PMC10397247

Molecular target: T1, 4H3297-bA
T1 chain: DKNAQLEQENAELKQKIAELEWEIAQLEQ
Assay: two-hybrid library CCNG1;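 note: natural log of median RNA to DNA barcode read ratio; higher means stronger binding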
Please respond with Yes when measured interaction score is strictly beneath -0.2, and with No in all other cases.

> print(dat)
                                     binder  assigned.category
1  DKIAQLKQKNAELKQKIAELEWEIAQLEQ [4H3041-bA]                Yes
2  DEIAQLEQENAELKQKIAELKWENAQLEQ [4H235-bA]                Yes
3  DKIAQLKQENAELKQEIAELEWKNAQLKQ [4H2760-bA]                 No
4  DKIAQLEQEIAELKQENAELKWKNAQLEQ [4H2143-bA]                Yes
5  DKIAQLKQEIAELEQENAELKWEIAQLEQ [4H2585-bA]                Yes
6  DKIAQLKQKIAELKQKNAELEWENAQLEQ [4H2931-bA]                Yes
7  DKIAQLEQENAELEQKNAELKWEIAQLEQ [4H2233-bA]                Yes
8  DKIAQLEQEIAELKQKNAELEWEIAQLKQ [4H2162-bA]                 No
9  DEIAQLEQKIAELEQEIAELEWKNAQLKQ [4H264-bA]                 No
